Recorded values, source paper PMC9482650.

Experimental Target: T1, SYNJ2BP, P57105
T1 sequence (P57105 8-110, limits assumed, looked up): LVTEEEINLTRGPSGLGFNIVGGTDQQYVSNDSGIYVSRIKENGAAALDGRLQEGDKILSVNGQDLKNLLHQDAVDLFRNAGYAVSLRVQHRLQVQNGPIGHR
Assay Remarks: holdup assay
Set-up: key: below the threshold = too weak to quantify, mostly under pKd 3.1 to 4
Assay Setup: plain residues with an end cap or a label only (N-terminal biotin on a linker: ttds)

Binder | pKd
SRPQRTQTQV [HPV67-E6, A4U7F2] | 4.4
ERKLSSESQV [LRP4, O75096] | 4.78
SSRTRRETQL [HPV16-E6, P03126] | 5.18
VLRLQSETSV [VANGL1, Q8TAA9] | 5.41
PKTPPTDTSV [KIR3DL3, Q8N743] | 4.44
SVWLRKETRV [CYSLTR2, Q9NS75] | 5.38
GQDSREETQL [KCNT2, Q6UVM3] | 4.62
IDNDTESTAL [ARHGAP17, Q68EM7] | 4.01
STLTIFETAL [ABCC4, O15439] | 5.56
TVASEKESVM [SLC1A5, Q15758] | 3.51
QSARYRDTEL [TJP2, Q9UDY2] | 5.1
RSLEEEESQL [GRASP, Q7Z6J2] | 3.86
